Exercise: for every item that follows, state its recorded MIC.
Test system: Methicillin Resistant Staphylococcus aureus strain USA 300, NRS384
Method notes: Minimum inhibitory concentration, broth micro-dilution (CLSI), S. aureus
Format: cell-based
Details: Staphylococcus aureus, MRSA / NRS 384 / USA300, 22 h, MRSA USA 300 NRS384; 35° C., 22 hours; read-out: MIC (μg/mL) S. aureus
Please answer in the form of a number followed by its unit of measurement.

// for each compound below, give its MIC
1. CCCCCCCCCCN(CCC(=O)N[C@@H](CCCCNC(=O)OC(C)(C)C)C(=O)N(C)[C@@H]1C(=O)N[C@@H](C)C(=O)N[C@H](C(=O)O)Cc2ccc(OC(=O)OC(C)(C)C)c(c2)-c2cc1ccc2OC1O[C@H](CO)[C@@H](O)[C@H](O)[C@H]1NC(=O)OC(C)(C)C)C(=O)OC(C)(C)C (some centres unmarked)
2. Cc1cc(-c2ccc(CC(C)C)nn2)ccc1C(=O)N[C@@H](CCN)C(=O)N(C)[C@@H]1C(=O)N[C@@H](C)C(=O)N[C@H](C(=O)NCC#N)Cc2ccc(OCCN)c(c2)-c2cc1ccc2OCCN
3. CCCc1ccc(-c2nc(C)c(C(=O)N[C@@H](CCN)C(=O)N(C)[C@@H]3C(=O)N[C@@H](C)C(=O)N[C@H](C(=O)NCC#N)Cc4ccc(OCCN)c(c4)-c4cc3ccc4OCCN)c(C)n2)cc1
4. CCCCc1ccc(-c2ccc(C(=O)N[C@@H](CCCCN)C(=O)N(C)[C@@H]3C(=O)N[C@@H](C)C(=O)N[C@H](C(=O)NC4(C#N)CC4)Cc4ccc(O)c(c4)-c4cc3ccc4OCCN)cc2)cc1
5. C[C@@H]1NC(=O)[C@@H](N(C)C(=O)[C@H](CCN)NC(=O)CCCC2CCCCC2)c2ccc(OCCN)c(c2)-c2cc(ccc2OCCN)C[C@@H](C(=O)NCC#N)NC1=O

Result:
1. 2 µg/mL
2. 1 µg/mL
3. 0.047 µg/mL
4. 3 µg/mL
5. 0.5 µg/mL

---

Exercise: for every item that follows, state its recorded MIC.
Test system: Escherichia coli ATCC 25922
Method notes: Minimum inhibitory concentration, broth micro-dilution (CLSI), E. coli
Type: cell-based
Details: Escherichia coli, ATCC25922, 22 h, read-out: MIC (μg/mL) E. coli, E. coli ATCC 25922; 35° C., 22 hours

As a guide, the following entries are already answered.
{"Molecule": "CCCCCCCCc1ccc(C(=O)N[C@@H](CCN)C(=O)N(C)[C@@H]2C(=O)N[C@@H](C)C(=O)N[C@H](C(=O)NCC#N)Cc3ccc(OCCN)c(c3)-c3cc2ccc3OCCN)c(CCC#N)c1 [Compound 449]", "MIC": "1 µg/mL"}
{"Molecule": "CCCCCCCCCC(=O)N[C@@H](C)C(=O)N[C@@H](CCN)C(=O)N(C)[C@@H]1C(=O)N[C@@H](C)C(=O)N[C@H](C(=O)NCC#N)Cc2ccc(OCCN)c(c2)-c2cc1ccc2OCCN [Compound 373]", "MIC": "4 µg/mL"}
{"Molecule": "C[C@@H]1NC(=O)[C@@H](N(C)C(=O)[C@H](CCN)NC(=O)c2ccc(C(C)(C)C)cc2C(F)F)c2ccc(OCCN)c(c2)-c2cc(ccc2OCCN)C[C@@H](C(=O)NCC#N)NC1=O [Compound 220]", "MIC": "2.5 µg/mL"}
{"Molecule": "C[C@@H]1NC(=O)[C@@H](N(C)C(=O)[C@H](CCCCN)NC(=O)c2ccc(Oc3ccc(Cl)cc3)cc2)c2ccc(OCCN)c(c2)-c2cc(ccc2OCCN)C[C@@H](C(=O)NCC#N)NC1=O [Compound 116]", "MIC": "12 µg/mL"}

Then this molecule:
get_value(item= C[C@@H]1NC(=O)[C@@H](N(C)C(=O)[C@H](CCCCN)NC(=O)c2ccccc2-c2ccc(Cl)cc2)c2ccc(OCCN)c(c2)-c2cc(ccc2OCCN)C[C@@H](C(=O)NCC#N)NC1=O [Compound 114] , readout=MIC) returns > 64 µg/mL

---

System: Escherichia coli ATCC 25922
Method notes: Minimum inhibitory concentration, broth micro-dilution (CLSI), E. coli
Format: cell-based
Details: Escherichia coli, ATCC25922, 22 h, read-out: MIC (μg/mL) E. coli, E. coli ATCC 25922; 35° C., 22 hours
Observation type: log10 of MIC (log10 of the value in µg/mL)
Note: values are log10 of MIC expressed in µg/mL.

As a guide, the following entries are already answered.
{"Molecule": "CCCCCCCc1ccc(C(=O)N[C@@H](CO)C(=O)N[C@@H](CCN)C(=O)N(C)[C@@H]2C(=O)N[C@@H](C)C(=O)N[C@H](C(=O)NCC#N)Cc3ccc(OCCN)c(c3)-c3cc2ccc3OCCN)cc1 [Compound 383]", "Observation type": "log10 of MIC", "Recorded result": 0.60}
{"Molecule": "CCC(C)(C)c1ccc(C(=O)N[C@@H](CCN)C(=O)N(C)[C@@H]2C(=O)N[C@@H](C)C(=O)N[C@H](C(=O)NCC#N)Cc3ccc(OCCN)c(c3)-c3cc2ccc3OCCN)c(C)c1 [Compound 265]", "Observation type": "log10 of MIC", "Recorded result": 0.40}
{"Molecule": "C[C@@H]1NC(=O)[C@@H](N(C)C(=O)[C@H](CCCCN)NC(=O)c2cccc(-c3ccc(Cl)cc3)c2)c2ccc(OCCN)c(c2)-c2cc(ccc2OCCN)C[C@@H](C(=O)NCC#N)NC1=O [Compound 113]", "Observation type": "log10 of MIC", "Recorded result": 1.51}
{"Molecule": "C[C@@H]1NC(=O)[C@@H](N(C)C(=O)[C@H](CCCCN)NC(=O)c2ccc(-c3cc(Cl)cc(Cl)c3)cc2)c2ccc(OCCN)c(c2)-c2cc(ccc2OCCN)C[C@@H](C(=O)NCC#N)NC1=O [Compound 111]", "Observation type": "log10 of MIC", "Recorded result": 0.90}
{"Molecule": "CCCCCCCCCC(=O)N[C@H](CCC)C(=O)N[C@@H](CCN)C(=O)N(C)[C@@H]1C(=O)N[C@@H](C)C(=O)N[C@H](C(=O)NCC#N)Cc2ccc(OCCN)c(c2)-c2cc1ccc2OCCN [Compound 353]", "Observation type": "log10 of MIC", "Recorded result": 0.30}

get_value(item= CCCCCCCCCC(=O)NCC(=O)N[C@@H](CCN)C(=O)N(C)[C@@H]1C(=O)N[C@@H](C)C(=O)N[C@H](C(=O)NCC#N)Cc2ccc(OCCN)c(c2)-c2cc1ccc2OCCN [Compound 372] , readout=log10 of MIC) returns 0.90

---

System: Escherichia coli ATCC 25922
Method notes: Minimum inhibitory concentration, broth micro-dilution (CLSI), E. coli
Assay type: cell-based
Details: Escherichia coli, ATCC25922, 22 h, read-out: MIC (μg/mL) E. coli, E. coli ATCC 25922; 35° C., 22 hours
Protocol: Cells were inoculated onto plates of Trypyticase Soy Agar or Luria Agar respectively and grown at 35° C. for 20 hours. Inocula suspensions were prepared by scraping cells into 1 mL of testing media (cation adjusted Mueller Hinton Broth supplemented with 0.002% v/v Tween-80) and diluting to a final OD600 nm of 0.01. Test compounds were prepared in DMSO at a concentration of 10 mg/mL. […]
Exercise: for every item that follows, state its recorded MIC.
Answers are plain numbers, in µg/mL.

As a guide, the following entries are already answered.
{"Compound structure string": "CCCCCCCCCC(=O)N[C@@H](C)C(=O)NCC(=O)N[C@@H](CCN)C(=O)N(C)[C@@H]1C(=O)N[C@@H](C)C(=O)N[C@H](C(=O)NCC#N)Cc2ccc(OCCN)c(c2)-c2cc1ccc2OCCN", "MIC / µg/mL": 64}
{"Compound structure string": "CCCCCCCCCC(=O)N[C@@H](CCO)C(=O)N[C@@H](CCN)C(=O)N(C)[C@@H]1C(=O)N[C@@H](C)C(=O)N[C@H](C(=O)NCC#N)Cc2ccc(OCCN)c(c2)-c2cc1ccc2OCCN", "MIC / µg/mL": 24}
{"Compound structure string": "CCCCc1ccc(C(=O)N[C@H](CCC)C(=O)N[C@@H](CCN)C(=O)N(C)[C@@H]2C(=O)N[C@@H](C)C(=O)N[C@H](C(=O)NCC#N)Cc3ccc(OCCN)c(c3)-c3cc2ccc3OCCN)c(C)c1", "MIC / µg/mL": 8}
{"Compound structure string": "Cc1cc(Oc2ccc(C(C)(C)C)cc2)ccc1C(=O)N[C@@H](CCN)C(=O)N(C)[C@@H]1C(=O)N[C@@H](C)C(=O)N[C@H](C(=O)NCC#N)Cc2ccc(OCCN)c(c2)-c2cc1ccc2OCCN", "MIC / µg/mL": 0.25}

get_value(item= `CCCCCCCCCC(=O)N[C@H](CO)C(=O)N[C@@H](CCN)C(=O)N(C)[C@@H]1C(=O)N[C@@H](C)C(=O)N[C@H](C(=O)NCC#N)Cc2ccc(OCCN)c(c2)-c2cc1ccc2OCCN` , readout=MIC) returns 16

Source of measurements: patent US20180327367A1
